- MEASUREMENT_TARGET: UniProt P30521
- Sequence (P30521 whole entry): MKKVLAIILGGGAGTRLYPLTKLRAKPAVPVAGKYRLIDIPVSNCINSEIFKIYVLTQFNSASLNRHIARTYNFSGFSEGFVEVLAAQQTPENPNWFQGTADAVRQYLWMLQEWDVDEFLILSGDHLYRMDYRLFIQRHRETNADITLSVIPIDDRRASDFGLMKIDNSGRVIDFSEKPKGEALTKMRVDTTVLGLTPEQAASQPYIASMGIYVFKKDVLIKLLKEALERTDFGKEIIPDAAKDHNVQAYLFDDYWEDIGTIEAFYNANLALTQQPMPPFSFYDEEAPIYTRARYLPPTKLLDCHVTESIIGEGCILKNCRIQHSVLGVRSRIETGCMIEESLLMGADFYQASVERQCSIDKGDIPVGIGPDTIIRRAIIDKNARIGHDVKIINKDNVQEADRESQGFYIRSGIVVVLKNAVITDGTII

| MOLECULE | IC50, µM |
| --- | --- |
| O=P(O)(O)O [Pi] | 90 |

* * *

- System: inMelGlgC
- EXPERIMENT_DESCRIPTION: activity assay, ADP-Glc synthesis
- Format: biochemical, Candidatus Melainabacteria bacterium MEL.A1
- ASSAY_SETUP: read-out: I0.5; inhibitor; 10 mM MgCl2; MOPS pH 8.0; 37 °C

| SMILES_STR | ENDPOINT_UNIT | IC50 |
| --- | --- | --- |
| Nc1ncnc2c1ncn2[C@@H]1O[C@H](COP(=O)(O)OP(=O)(O)O)[C@@H](O)[C@H]1O | µM | 2300 |

* * *

- MEASUREMENT_TARGET: flMelGlgC
- EXPERIMENT_DESCRIPTION: Malachite Green Pi release with inorganic pyrophosphatase, ADP-Glc synthesis
- ASSAY_SETUP: read-out: A0.5; allosteric activator; 10 mM MgCl2; MOPS pH 8.0; 37 °C
pEC50: −log10 of the molar value.
READOUT_NAME: pEC50

| COMPOUND | READOUT_NAME | READOUT_NUMBER |
| --- | --- | --- |
| O=P(O)(O)OC[C@H]1OC(O)[C@@H](O)[C@@H](O)[C@@H]1O (stereo partly drawn) [Man-6P] | pEC50 | 3.35 |
| O=P(O)(O)OC[C@H]1OC(O)(CO)[C@@H](O)[C@@H]1O (stereo partly drawn) [Fru-6P] | pEC50 | 2.77 |

* * *

- MEASUREMENT_TARGET: inMelGlgC
- EXPERIMENT_DESCRIPTION: Malachite Green Pi release with inorganic pyrophosphatase, ADP-Glc synthesis
- ASSAY_SETUP: read-out: A0.5; allosteric activator; 10 mM MgCl2; MOPS pH 8.0; 37 °C
pEC50: −log10 of the molar value.

| MOLECULE | pEC50 |
| --- | --- |
| O=P(O)(O)OC[C@H]1OC(O)[C@@H](O)[C@@H](O)[C@@H]1O (stereo partly drawn) | 3.28 |
| O=P(O)(O)OC[C@H]1OC(O)(CO)[C@@H](O)[C@@H]1O (stereo partly drawn) | 3.36 |

* * *

- Tested on: flMelGlgC
- EXPERIMENT_DESCRIPTION: activity assay, ADP-Glc synthesis
- Type: biochemical, Candidatus Melainabacteria bacterium GWF2_37_15
- ASSAY_SETUP: read-out: I0.5; inhibitor; 10 mM MgCl2; MOPS pH 8.0; 37 °C

| COMPOUND | ENDPOINT_UNIT | IC50 |
| --- | --- | --- |
| Nc1ncnc2c1ncn2[C@@H]1O[C@H](COP(=O)(O)OP(=O)(O)O)[C@@H](O)[C@H]1O [ADP] | µM | 1440 |
